Source: the supplement of paper PMC11780869

- System: Bacillus subtilis
- assay.name: cleaved RNA product abundance (RNA/gDNA barcode ratio) relative to median wild-type variant (ratio to wild type); higher = more accumulation of the downstream cleavage product
- reported.conditions: experiment (reporter, strain, medium): exp 4a: truncated aprE reporter, strain BJT201 with 2% xylose (RNase J1 expressed); cleavage site: cggR-gapA (positions -7 to +36 mutated)
quantity.name: cleaved RNA product abundance

ACAGACGAAGGAGCCGCAAAGAAGGTATTAAGAGATGAATAATCCCTCAATATAAATATCTCTCACTTATTTAAA    0.171
ACAGACGAAGGAGCCGCATAGAAGTTATTAAGGGATGAATAATCCCTAAATATAAATATCTCTCACTTATTTAAA    0.658
ACAGACGAAGGAGCCGCAAAGAAGTTATTAAGGTTTGAATAATCCCTCAATATAAATATCTCTCACTTATTTAAA    0.144
ACAGACGAAGGAGCCGCAAAGAAGTTATTAAGGGATAAATAATCCCTCAATATAAAGATCTCTCACTTATTTAAA    0.505
ACAGACGAAGGAGCCGCAAAGAAGTTATTAAGGTATGAATATTCCCTCAATATAAATATCTCTCACTTATTTAAA    0.0859
ACAGACGAAGGAGCCGCAAAGAAGTTTTTAAGGGATCAATAATCCCTCAATATAAATATCTCTCACTTATTTAAA    0.289
ACAGACGAAGGAGCCGCAAAGAATTTATTAAGGGATGAATTATCCCTCAATATAAATATCTCTCACTTATTTAAA    0.268
